- system: LXRβ (Homo sapiens)
- Construct: Co-transfection expression plasmids, comprising full-length LXRα (pCMX-h LXRα or LXRβ (pCMX-hLXRβ))
- Sequence (P55055 1-460): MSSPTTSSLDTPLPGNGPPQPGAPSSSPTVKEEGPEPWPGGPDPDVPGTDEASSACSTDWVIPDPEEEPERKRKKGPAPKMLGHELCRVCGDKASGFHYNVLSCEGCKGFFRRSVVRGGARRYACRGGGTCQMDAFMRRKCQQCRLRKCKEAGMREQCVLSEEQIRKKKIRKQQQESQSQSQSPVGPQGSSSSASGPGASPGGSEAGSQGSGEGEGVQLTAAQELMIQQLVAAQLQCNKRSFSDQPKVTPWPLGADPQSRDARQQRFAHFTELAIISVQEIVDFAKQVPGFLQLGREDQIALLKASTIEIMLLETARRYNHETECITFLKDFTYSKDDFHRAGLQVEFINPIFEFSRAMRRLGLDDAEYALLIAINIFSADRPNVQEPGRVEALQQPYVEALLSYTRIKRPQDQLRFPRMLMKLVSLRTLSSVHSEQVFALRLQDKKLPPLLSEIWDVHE
- Sequence (P19793 1-462 partner): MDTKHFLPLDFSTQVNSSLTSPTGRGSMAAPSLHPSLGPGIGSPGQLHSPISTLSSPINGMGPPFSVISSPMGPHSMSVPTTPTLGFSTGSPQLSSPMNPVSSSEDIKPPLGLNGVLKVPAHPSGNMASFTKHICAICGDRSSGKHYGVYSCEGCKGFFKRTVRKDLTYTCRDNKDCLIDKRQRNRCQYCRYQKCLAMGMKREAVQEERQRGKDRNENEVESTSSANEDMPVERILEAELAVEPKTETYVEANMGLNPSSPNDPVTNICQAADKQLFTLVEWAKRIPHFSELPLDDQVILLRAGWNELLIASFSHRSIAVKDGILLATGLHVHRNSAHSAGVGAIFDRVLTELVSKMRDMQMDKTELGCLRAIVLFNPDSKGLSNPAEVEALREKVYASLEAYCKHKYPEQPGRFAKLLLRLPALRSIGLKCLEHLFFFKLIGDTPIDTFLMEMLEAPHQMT
- protocol-description: LXR/LXRE co-transfection assay (luciferase reporter) in CV-1 cells, LXRβ
- experimental-parameters: CV-1 cells transfected with pCMX-hLXRβ and LXREx1-Tk-Luciferase, 20 hours incubation, read-out: LXRbeta agonism EC50
- Procedure: To measure the ability of compounds to activate or inhibit the transcriptional activity of LXR in a cell based assay, the co-transfection assay was used. It has been shown that LXR functions as a heterodimer with RXR. […] Treatment of transfected cells with an LXR agonist increases the transcriptional activity of LXR, which is measured by an increase in luciferase activity. […]
assay-metric: EC50 (µM)

Below: 5 compounds and their reported EC50.
{"compound": "COCC(F)(F)c1cc(-c2ccc(-c3cc(F)c(CO)c(S(C)(=O)=O)c3)cc2-n2nncc2-c2ccc(OC(F)(F)F)cc2)n(C)n1", "system": "LXRβ (Homo sapiens)", "assay-metric": "EC50", "numeric-readout": 0.061}
{"compound": "Cc1nc(-c2ccc(OC(F)(F)F)cc2)c(-c2cc(-c3cc(F)c(CO)c(S(C)(=O)=O)c3)ccc2-n2ccc(C#N)n2)o1", "system": "LXRβ (Homo sapiens)", "assay-metric": "EC50", "numeric-readout": 0.071}
{"compound": "Cc1nc(-c2ccc3c(c2)OC(F)(F)O3)c(-c2cc(-c3cc(F)c(CO)c(S(C)(=O)=O)c3)ccc2-c2cc(C(F)(F)C(=O)NCC3CC3)nn2C)o1", "system": "LXRβ (Homo sapiens)", "assay-metric": "EC50", "numeric-readout": 0.134}
{"compound": "Cc1nc(-c2ccc(OC(F)(F)F)cc2)c(-c2cc(-c3cccc(S(C)(=O)=O)c3)ccc2-n2cc(C#N)c(C3CC3)n2)o1", "system": "LXRβ (Homo sapiens)", "assay-metric": "EC50", "numeric-readout": 0.116}
{"compound": "Cc1nc(-c2ccc3c(c2)OC(F)(F)O3)c(-c2cc(-c3cc(F)c(CO)c(S(C)(=O)=O)c3)ccc2-n2ccc(C(C)(C)O)n2)o1", "system": "LXRβ (Homo sapiens)", "assay-metric": "EC50", "numeric-readout": 0.105}

I. Cc1nc(-c2ccc3c(c2)OC(F)(F)O3)c(-c2cc(-c3cccc(S(C)(=O)=O)c3)ccc2-c2cc(C(F)(F)CO)nn2C)o1 [Example 106]
II. Cc1nc(-c2ccc(OC(F)(F)F)cc2)c(-c2cc(-c3cc(F)c(CO)c(S(C)(=O)=O)c3)ccc2-n2ccc(C(=O)NCC(F)(F)F)n2)o1
# input Select one. Lower EC50: I or II Kindly state the label of the option you pick.
# output I
(I: 0.071 µM, II: 0.123 µM)
